Test system: SK-MEL-5 melanoma
assay.comment: NCI tumour cell line growth inhibition, 48 h; in the data active = GI50 below about 0.43 µM; inactive = the rest
Respond only with the outcome that fits, drawn from label 1 (active), label 0 (inactive)

Worked examples, 6 compounds total:
O=C(O)Cc1ccccc1; label 0
COc1cc(-c2cn(-c3ccc(Cl)cc3)c(=O)n2-c2ccccc2)cc(OC)c1OC; label 0
C#CCSc1nnnn1-c1ccc(Br)c(C)c1; label 0
CC(=O)[CH-]C(=O)c1ccccc1.CC(=O)[CH-]C(=O)c1ccccc1.[O-]Cc1cccs1.[O-]Cc1cccs1.[Ti+4]; label 0
NCCCNCCCNc1nc2ccccc2c2[nH]c3ccccc3c12; label 1
C/C(=N\NC(=S)Nc1ccccc1)c1ccccn1; label 1

[ask] Per the records of this test, what outcome belongs to C[C@@H](Oc1cc(-n2cnc3ccc(OCC4CCN(C)CC4)cc32)sc1C(N)=O)c1ccccc1C(F)(F)F ?
[reply] label 1

[ask] Per the records of this test, what outcome belongs to CC[n+]1c(/C=C/c2ccc(N(CCCl)CCCl)cc2)ccc2cc(Br)ccc21 ?
[reply] label 0

###

Test system: OVCAR-4 ovarian
assay.comment: NCI tumour cell line growth inhibition, 48 h; in the data active = GI50 below about 0.43 µM; inactive = the rest
Respond only with the outcome that fits, drawn from active, inactive

Worked examples, 3 molecules total:
O=C(Nc1ccc(-n2cc(-c3ccncc3)c(-c3ccc(O)c(Cl)c3)n2)cc1)c1ccc(Cl)c(Cl)c1; inactive
CN(C)c1ccc(N=C(C#N)c2nc(N)nc(N3CCOCC3)n2)cc1; inactive
c1ccc(CNc2nc(Nc3ccc(-c4nc5ccccc5[nH]4)cc3)c3cn[nH]c3n2)cc1; inactive

[ask] Per the records of this test, what outcome belongs to C[C@@H](Oc1cc(-n2cnc3ccc(OCC4CCN(C)CC4)cc32)sc1C(N)=O)c1ccccc1C(F)(F)F ?
[reply] inactive

[ask] Per the records of this test, what outcome belongs to Cc1ccc2c(c1)/C(=N\N=C/c1cn(C(C)C)c3ccccc13)C(=O)N2 ?
[reply] active

###

Test system: COLO 205 colon
assay.comment: NCI tumour cell line growth inhibition, 48 h
Please provide measured TGI for the entries that follow.

NC(=O)OCc1c(O)c2c(c(O)c1COC(N)=O)C(=O)C=CC2=O; > 100 µM
O=C(O)Cc1ccccc1; > 2000 µM
COc1cc(-c2c(C(C)=O)c(-c3ccccc3)n(C3OC(COC(C)=O)C(OC(C)=O)C(OC(C)=O)C3OC(C)=O)c(=S)c2C#N)ccc1O (stereo unspecified); > 100 µM
COc1ccc(C2C(Cl)C(=O)N2NC(=O)c2ccc(NC(C)=O)cc2)cc1OC (stereo unspecified); > 100 µM
COC(=O)[C@H]1[C@H](OC(=O)[C@@H](OC)c2ccccc2)ON2CC[C@@H](OC(=O)c3ccccc3)[C@H]12; > 100 µM

Please look at the following molecule next.
[ask] Write down the reported TGI (system: COLO 205 colon) of OCC1OC(NC(=S)NCSCCC(F)(F)C(F)(F)C(F)(F)C(F)(F)C(F)(F)C(F)(F)F)C(O)C(O)C1O (stereo unspecified)
[reply] > 100 µM

###

Please provide measured TGI for the entries that follow.
System: ACHN renal
assay.comment: NCI tumour cell line growth inhibition, 48 h

Would you be so kind as to report TGI for each listed record?
1. CCCCCCCCCCCCCCCc1ccc(C(=O)C[n+]2ccccc2)cc1
2. Cc1ccc(CCCC(=O)O)cc1C
3. c1cc(-c2ccc(Oc3ccc(-c4ccncc4)cc3)cc2)ccn1
4. COc1ccc(C(=O)Nc2ccccc2C#N)cc1
5. COc1ccc(N=C/C=C/C(=C/COC(C)=O)OC(C)=O)cc1
6. CC1=NN(c2ccccc2Cl)C2(C1)SCC(=O)N2c1nc2ccccc2s1 (centres undefined)
7. O=c1[nH]cnc2c1nnn2C1C=C(CO)C(O)C1O (centres undefined)
8. COc1ccc(C2=NN(c3ccc(S(N)(=O)=O)cc3)C(c3ccc(Cl)cc3)C2)c(O)c1 (centres undefined)

[reply]
2.22 µM
> 100 µM
> 100 µM
> 100 µM
34.4 µM
> 100 µM
> 100 µM
50.6 µM

Would you be so kind as to report TGI for each listed record?
1. Nc1nccc(C#Cc2cncnc2Nc2ccc(OCc3cccc(F)c3)c(Cl)c2)n1
2. CCOC(=O)/C(=C/c1c(-c2ccccc2)[nH]c2ccccc12)C(=O)c1ccc(Cl)cc1

[reply]
10.6 µM
> 100 µM

Would you be so kind as to report TGI for each listed record?
1. COC(=O)c1c(OC(C)=O)ccc2c1c1c(n2Cc2ccccc2)C(=O)c2ccccc2C1=O
2. C=C1C(=O)OC2C3C(=C)[C@@H](OC(C)=O)CC3C(C)=CC(OC(=O)C(C)(O)C(C)OC(C)=O)[C@@H]12 (some centres undefined)
3. COC(=O)/C=C(\S/C(=C(/c1ccccc1)n1cc(C(=O)OC)c(C(=O)OC)n1)c1ccccc1)C(=O)OC
4. Cn1cc(-c2csc(-c3cn(C)c4ncccc34)n2)c2ccccc21

[reply]
> 100 µM
24.8 µM
10.6 µM
16.6 µM

Would you be so kind as to report TGI for each listed record?
1. Cc1ccc(NC(=O)CCC(=O)C2CC(=O)CCC2=O)cc1C (centres undefined)
2. CCOC(=O)c1cc(NC(=O)c2ccccc2)c(=O)n2c(cc3c(Cl)cccc32)c1O
3. Cc1cc(C)c2c(c1C)CN1CN2Cc2c(C)c(C)cc(C)c21
4. COc1cc(-c2c(C(C)=O)c(-c3ccccc3)n(C3OC(COC(C)=O)C(OC(C)=O)C(OC(C)=O)C3OC(C)=O)c(=S)c2C#N)ccc1O (centres undefined)
5. CC(=O)NNc1nc(C)c(C(/C=C/c2ccc3c(c2)OCO3)=N/NC(=O)c2ccncc2)s1
6. COc1cc2c(cc1OCCCN1CCN(CCCOc3cc4c(cc3OC)C(=O)C3CCC[C@H]3C=N4)CC1)N=C[C@@H]1CCCC1C2=O (some centres undefined)
7. COC12c3ccccc3-c3ccccc3C1[C@@H](C(=O)O)[C@H]2C(=O)O (some centres undefined)
8. CCCCCNC(=O)C1C(=O)N(CCCCC)C(=O)/C1=N\N (centres undefined)

[reply]
1. > 100 µM
2. > 100 µM
3. > 100 µM
4. > 100 µM
5. > 100 µM
6. > 100 µM
7. > 10 µM
8. > 100 µM

Would you be so kind as to report TGI for each listed record?
1. COc1ccc(C=O)c(N(C)C(=O)C(C)(C)C)c1
2. Nc1nc(SCC(=O)c2ccccc2)nc2nc3c(c(-c4ccccc4)c12)CCCC3
3. CCOc1ccc(NC(=O)/C(=C/c2ccccc2)C(C)=O)cc1
4. COc1ccc(C2C(Cl)C(=O)N2NC(=O)c2ccc(NC(C)=O)cc2)cc1OC (centres undefined)
5. Nc1nc(Cl)cc(NCC2(CO)CC(O)C2)n1 (centres undefined)
6. O=C1c2cccnc2-c2nc(-c3ccccc3)cc3c2c1nc1ccccc13
7. Nc1ncn([C@@H]2C=C(CO)C(O)C2O)c(=O)n1 (some centres undefined)

[reply]
1: > 100 µM; 2: > 100 µM; 3: 35.3 µM; 4: > 100 µM; 5: > 100 µM; 6: 8 µM; 7: > 100 µM

Would you be so kind as to report TGI for each listed record?
1. CC(=O)Nc1ccc2c(c1)C(=Nc1ccc(C(=O)O)cc1)c1ccccc1-2
2. COC(=O)C1CCCCCCCCCCC12SCCCS2 (centres undefined)
3. COc1cccc(/C=N/[N-]C(N)=O)c1[O-].[OH3+].[Zn+2]
4. c1ccc2c(-c3ccnc(-c4c[nH]c5ccccc45)n3)c[nH]c2c1
5. COc1cc(C2c3cc4c(cc3[C@@H](OCCN)[C@H]3COC(=O)C23)OCO4)cc(OC)c1O (some centres undefined)

[reply]
1. > 100 µM
2. 40.2 µM
3. > 100 µM
4. > 100 µM
5. 2.01 µM

###

System: IGROV1 ovarian
assay.comment: NCI tumour cell line growth inhibition, 48 h
property: TGI

Reference set, count: 4
COC(=O)CC(CC(=O)C(=O)OC)C(=O)OC (stereo not given); > 100 µM
CCN1N=CSC12C(=O)N(c1ccccc1)C(=O)N2c1ccccc1 (stereo not given); > 100 µM
O=C(Nc1ccc(-n2cc(-c3ccncc3)c(-c3ccc(O)c(Cl)c3)n2)cc1)c1ccc(Cl)c(Cl)c1; > 32.5 µM
O=C(O)C1CCCCN1CCc1c[nH]c2ccccc12 (stereo not given); > 100 µM

Please look at the following molecule next.
[ask] Write down the reported TGI (system: IGROV1 ovarian) of Nc1cc2c3c(cccc3c1)C(=O)N(CCN1CCN(CCN3C(=O)c4cccc5cc(N)cc(c45)C3=O)CC1)C2=O
[reply] > 100 µM

###

Test system: SF-295 CNS
assay.comment: NCI tumour cell line growth inhibition, 48 h
property: TGI

Clc1ccc(C2=NN(c3ccccc3)C3c4cc(Br)ccc4OCC23)cc1 (stereo not drawn); > 100 µM
COC1C2c3ccccc3C(C#N)(Cc3ccc4c(c32)OCO4)N1C(=O)c1ccccc1 (stereo not drawn); > 100 µM

[ask] Hello, please tell me recorded TGI for this one: [N-]=[N+]=NC1=C(N=[N+]=[N-])c2cccc3cccc(c23)C1=O
[reply] > 100 µM
